Source listed as patent US20160051529A1.

Provide the reported pIC50 of each item.
- SUBJECT_OF_TEST: human PPARγ ligand binding domain (LBD) (Homo sapiens)
- Sequence (P37231 238-503 limits assumed): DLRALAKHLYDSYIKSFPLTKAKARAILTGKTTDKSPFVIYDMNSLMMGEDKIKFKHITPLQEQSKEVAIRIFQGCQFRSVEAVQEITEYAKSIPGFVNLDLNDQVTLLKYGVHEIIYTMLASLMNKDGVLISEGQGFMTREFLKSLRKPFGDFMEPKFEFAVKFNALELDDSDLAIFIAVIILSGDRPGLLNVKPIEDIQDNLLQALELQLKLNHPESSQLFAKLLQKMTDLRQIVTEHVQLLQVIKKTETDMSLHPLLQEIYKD
Answers are plain numbers, as −log10 of the molar value.

Example results:
COc1cccc(C(=O)COc2cccc(O[C@H](C)C(=O)O)c2)c1 [Compound 15]; 4.00
CCOC(Cc1ccc(OC/C(=N/OC)c2ccc(CC)cn2)cc1)C(=O)O (centres unmarked) [Compound 18]; 4.21
CCOC(=O)[C@H](Cc1ccc(OC[C@@H](NC(=O)OC(C)(C)C)c2ccccc2)cc1)OCC [Compound 61]; 4.85
CCO/C(=C\c1ccc(OC/C(=N/OC)c2ccc(CC)cn2)cc1)C(=O)O [Compound 17]; 4.68

# batch: return pIC50 for each of the 4 compounds below
1. CCO/C(=C\c1ccc(OCC(=O)c2ccc(CC)cn2)cc1)C(=O)O [Compound 14]
2. CCO[C@@H](Cc1ccc(OC[C@@H](NC(=O)OC(C)(C)C)c2ccccc2)cc1)C(=O)O [Compound 55]
3. CCO[C@@H](Cc1ccc(OC[C@@H](NC(C)=O)c2ccccc2)cc1)C(=O)O [Compound 56]
4. CCOC(Cc1ccc(OC[C@@H](F)c2cccc(OC)c2)cc1)C(=O)O (some centres unmarked) [Compound 50]

Result string:
4.02
4.72
4.47
3.80

Query string: Please look up its pIC50: CCOC(Oc1ccc(OC[C@H](O)c2ccc(CC)cn2)cc1)C(=O)O (some centres unmarked) [Compound 36]
Result string: 4.75
